method_summary: chemical genetic growth profiling, strain panel (AID 1159580);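 further: tested at 20 µM; growth read once vehicle control cultures reached saturation at 30 °C; 1 = growth at the plate median or of vehicle wells; lower values mean less growth of the strain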
protocol_conditions: S. cerevisiae deletion strains, growth OD, locus YEL037C, strain rad23, stronger effect = lower value
The campaign covered roughly 5,500 compounds. About 2,000 (36%) were called active. About 18% were inconclusive and are not listed. The list shows a part of the results.
Field: normalized growth. Provide a value for each of the molecules that follow.
// print number alone

// sample COc1ccc2c(c1)OC[C@@H](Cc1ccc(OC)c(OC)c1)[C@@H]2O , its normalized growth was 1.01

For record Cc1cc(=O)c2c(O)cc(O)c(C)c2o1 the listed normalized growth is 0.961

Form: molecule = CCCCOc1ccc(C(=O)CCN2CCCCC2)cc1 ; normalized growth = 0.853

The measured normalized growth associated with CCCCOc1ccc(OCCCN2CCOCC2)cc1 reads 0.98

The recorded normalized growth for COc1ccc2c(c1)OC[C@@H](Cc1ccc(OC)c(OC)c1)[C@H]2O is 1.01

OC(CCN1CCCCC1)(c1ccccc1)c1ccccc1 yielded normalized growth of 0.985
